I'd appreciate it if you could supply Target selectivity PR/GR values for the items below.
- TARGET_ENTITY: progesterone receptor (PR) (Homo sapiens, UniProt P06401)
- Sequence (P06401 678-933): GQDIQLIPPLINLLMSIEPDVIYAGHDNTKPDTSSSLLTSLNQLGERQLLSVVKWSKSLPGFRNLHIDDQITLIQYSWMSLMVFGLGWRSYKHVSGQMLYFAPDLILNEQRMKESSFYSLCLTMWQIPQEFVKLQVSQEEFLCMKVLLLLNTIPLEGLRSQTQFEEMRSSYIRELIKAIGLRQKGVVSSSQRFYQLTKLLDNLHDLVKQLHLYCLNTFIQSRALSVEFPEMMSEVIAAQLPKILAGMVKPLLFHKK
- METHOD_NOTES: Assay for agonist activity on progesterone receptor (luciferase reporter, HEK293 cells transfected with pBIND-PR plasmid)
- Assay type: cell-based
- APPLIED_CONDITIONS: ratio of EC50 values

stdin: Supply recorded Target selectivity PR/GR for C[C@]12C=CC(=O)C=C1[C@@H](F)C[C@H]1[C@@H]3C[C@H]4OC(c5ccc(OCC6CCOC6=O)cc5)O[C@@]4(C(=O)CO)[C@@]3(C)C[C@H](O)[C@@]12F (stereo partly drawn) here.
stdout: > 1.4×10^4

stdin: Supply recorded Target selectivity PR/GR for C[C@]12C=CC(=O)C=C1CC[C@H]1[C@@H]3C[C@H]4OC(c5ccc(COC6CCOC6=O)cc5)O[C@@]4(C(=O)CO)[C@@]3(C)C[C@H](O)[C@@]12F (stereo partly drawn) here.
stdout: > 1.2×10^5

stdin: Supply recorded Target selectivity PR/GR for C[C@]12C=CC(=O)C=C1[C@@H](F)C[C@H]1[C@@H]3C[C@H]4OC(c5ccc(C[S+]([O-])C6CCOC6=O)cc5)O[C@@]4(C(=O)CO)[C@@]3(C)C[C@H](O)[C@@]12F (stereo partly drawn) here.
stdout: > 3.8×10^4

---

- Test system: intraocular pressure of guinea pigs
- METHOD_NOTES: Adverse reactions of continuous ocular administration: intraocular pressure
- Format: in vivo
- APPLIED_CONDITIONS: D21; 50 µL/eye (compounds and fluorometholone 1 mg/mL, loteprednol 5 mg/mL)
I'd appreciate it if you could supply Intraocular pressure of guinea pigs (mmHg) D21 values for the items below.
Give just the number in mmHg; leave the unit off.

stdin: Supply recorded Intraocular pressure of guinea pigs (mmHg) D21 for CC(=O)[C@@]1(O)CC[C@H]2[C@@H]3C[C@H](C)C4=CC(=O)C=C[C@]4(C)[C@@]3(F)[C@@H](O)C[C@@]21C [Fluorometholone, reference compound] here.
stdout: 23.0

stdin: Supply recorded Intraocular pressure of guinea pigs (mmHg) D21 for CCOC(=O)O[C@]1(C(=O)OCCl)CC[C@H]2[C@@H]3CCC4=CC(=O)C=C[C@]4(C)[C@H]3[C@@H](O)C[C@@]21C [Loteprednol, Loteprednol Etabonate, reference compound] here.
stdout: 18.5

stdin: Supply recorded Intraocular pressure of guinea pigs (mmHg) D21 for C[C@]12C=CC(=O)C=C1CC[C@H]1[C@@H]3C[C@H]4OC(c5ccc(CSC6CCOC6=O)cc5)O[C@@]4(C(=O)CO)[C@@]3(C)C[C@H](O)[C@@]12Cl (stereo partly shown) [Compound 23] here.
stdout: 15.3

stdin: Supply recorded Intraocular pressure of guinea pigs (mmHg) D21 for C[C@]12C=CC(=O)C=C1CC[C@H]1[C@@H]3C[C@H]4OC(c5ccc(CSC6CCOC6=O)cc5)O[C@@]4(C(=O)CO)[C@@]3(C)C[C@H](O)[C@@]12F (stereo partly shown) [Compound 17] here.
stdout: 13.3

---

- TARGET_ENTITY: mineralocorticoid receptor (MR) (Homo sapiens)
- Sequence (P08235 726-984): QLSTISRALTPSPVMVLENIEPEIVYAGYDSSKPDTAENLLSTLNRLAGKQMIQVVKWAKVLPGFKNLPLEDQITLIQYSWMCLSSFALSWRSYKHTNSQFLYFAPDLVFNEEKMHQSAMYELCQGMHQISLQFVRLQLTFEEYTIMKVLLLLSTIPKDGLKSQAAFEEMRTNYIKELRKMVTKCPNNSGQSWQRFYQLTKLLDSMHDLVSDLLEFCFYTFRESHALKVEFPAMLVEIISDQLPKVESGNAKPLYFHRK
- METHOD_NOTES: Assay for agonist activity on mineralocorticoid receptor (luciferase reporter, HEK293 cells transfected with pBIND-MR plasmid)
- Assay type: cell-based
I'd appreciate it if you could supply EC50 values for the items below.

stdin: Supply recorded EC50 for C[C@]12C=CC(=O)C=C1[C@@H](F)C[C@H]1[C@@H]3C[C@H]4OC(c5ccc(CSC6CCOC6=O)cc5)O[C@@]4(C(=O)SCC#N)[C@@]3(C)C[C@H](O)[C@@]12F (stereo partly drawn) here.
stdout: > 50 µM

stdin: Supply recorded EC50 for C[C@]12C=CC(=O)C=C1[C@@H](F)C[C@H]1[C@@H]3C[C@H]4OC(c5ccc(CSC6CCOC6=O)cc5)O[C@@]4(C(=O)CO)[C@@]3(C)C[C@H](O)[C@@]12F (stereo partly drawn) here.
stdout: > 50 µM

stdin: Supply recorded EC50 for C[C@]12C=CC(=O)C=C1CC[C@H]1[C@@H]3C[C@H]4OC(c5ccc(CSC6CCOC6=O)nc5)O[C@@]4(C(=O)CO)[C@@]3(C)C[C@H](O)[C@@]12F (stereo partly drawn) here.
stdout: > 50 µM

---

- System: intraocular pressure of guinea pigs
- METHOD_NOTES: Adverse reactions of continuous ocular administration: intraocular pressure
- Format: in vivo
- APPLIED_CONDITIONS: D7; 50 µL/eye (compounds and fluorometholone 1 mg/mL, loteprednol 5 mg/mL)
PROPERTY_NAME: Intraocular pressure of guinea pigs (mmHg) D7
Give just the number in mmHg; leave the unit off.

stdin: Supply recorded Intraocular pressure of guinea pigs (mmHg) D7 for CC(=O)[C@@]1(O)CC[C@H]2[C@@H]3C[C@H](C)C4=CC(=O)C=C[C@]4(C)[C@@]3(F)[C@@H](O)C[C@@]21C [Fluorometholone, reference compound] here.
stdout: 20.5

stdin: Supply recorded Intraocular pressure of guinea pigs (mmHg) D7 for CCOC(=O)O[C@]1(C(=O)OCCl)CC[C@H]2[C@@H]3CCC4=CC(=O)C=C[C@]4(C)[C@H]3[C@@H](O)C[C@@]21C [Loteprednol, Loteprednol Etabonate, reference compound] here.
stdout: 19.0

stdin: Supply recorded Intraocular pressure of guinea pigs (mmHg) D7 for C[C@]12C=CC(=O)C=C1CC[C@H]1[C@@H]3C[C@H]4OC(c5ccc(CSC6CCOC6=O)cc5)O[C@@]4(C(=O)CO)[C@@]3(C)C[C@H](O)[C@@]12Cl (stereo partly shown) [Compound 23] here.
stdout: 15.3

stdin: Supply recorded Intraocular pressure of guinea pigs (mmHg) D7 for C[C@]12C=CC(=O)C=C1CC[C@H]1[C@@H]3C[C@H]4OC(c5ccc(CSC6CCOC6=O)cc5)O[C@@]4(C(=O)CO)[C@@]3(C)C[C@H](O)[C@@]12F (stereo partly shown) [Compound 17] here.
stdout: 16.0

---

I'd appreciate it if you could supply Intraocular pressure of guinea pigs (mmHg) D0 values for the items below.
- Test system: intraocular pressure of guinea pigs
- METHOD_NOTES: Adverse reactions of continuous ocular administration: intraocular pressure
- Type: in vivo
- APPLIED_CONDITIONS: D0, before administration; 50 µL/eye (compounds and fluorometholone 1 mg/mL, loteprednol 5 mg/mL)
Give just the number in mmHg; leave the unit off.

stdin: Supply recorded Intraocular pressure of guinea pigs (mmHg) D0 for C[C@]12C=CC(=O)C=C1CC[C@H]1[C@@H]3C[C@H]4OC(c5ccc(CSC6CCOC6=O)cc5)O[C@@]4(C(=O)CO)[C@@]3(C)C[C@H](O)[C@@]12Cl (stereo partly shown) here.
stdout: 13.5

stdin: Supply recorded Intraocular pressure of guinea pigs (mmHg) D0 for CCOC(=O)O[C@]1(C(=O)OCCl)CC[C@H]2[C@@H]3CCC4=CC(=O)C=C[C@]4(C)[C@H]3[C@@H](O)C[C@@]21C [Loteprednol, Loteprednol Etabonate, reference compound] here.
stdout: 14.0

stdin: Supply recorded Intraocular pressure of guinea pigs (mmHg) D0 for CC(=O)[C@@]1(O)CC[C@H]2[C@@H]3C[C@H](C)C4=CC(=O)C=C[C@]4(C)[C@@]3(F)[C@@H](O)C[C@@]21C [Fluorometholone, reference compound] here.
stdout: 14.3

stdin: Supply recorded Intraocular pressure of guinea pigs (mmHg) D0 for C[C@]12C=CC(=O)C=C1CC[C@H]1[C@@H]3C[C@H]4OC(c5ccc(CSC6CCOC6=O)cc5)O[C@@]4(C(=O)CO)[C@@]3(C)C[C@H](O)[C@@]12F (stereo partly shown) here.
stdout: 13.5

---

- METHOD_NOTES: Pharmacokinetic (PK) experiment in rats
- Format: in vivo, male SD rats
- APPLIED_CONDITIONS: male, SD, rat, plasma, po, 10 mg/kg, gavage, single
PROPERTY_NAME: half-life (min)
Give just the number in min; leave the unit off.

stdin: Supply recorded half-life for C[C@]12C=CC(=O)C=C1[C@@H](F)C[C@H]1[C@@H]3C[C@H]4OC(c5ccc(CSC6CCOC6=O)cc5)O[C@@]4(C(=O)CO)[C@@]3(C)C[C@H](O)[C@@]12F (stereo partly shown) here.
stdout: 313

---

- TARGET_ENTITY: UniProtKB P04150
- Sequence (P04150 521-777): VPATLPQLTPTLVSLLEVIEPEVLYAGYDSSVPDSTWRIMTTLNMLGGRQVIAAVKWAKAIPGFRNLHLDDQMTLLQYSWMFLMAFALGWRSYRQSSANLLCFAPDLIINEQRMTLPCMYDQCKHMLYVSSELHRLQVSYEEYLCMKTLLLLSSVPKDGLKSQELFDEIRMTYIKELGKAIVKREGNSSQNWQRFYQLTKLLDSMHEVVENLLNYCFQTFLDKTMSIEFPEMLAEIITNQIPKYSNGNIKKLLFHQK
- METHOD_NOTES: Assay for agonist activity on glucocorticoid receptor (luciferase reporter, HEK293 cells transfected with pBIND-GR plasmid)
- Type: cell-based
- APPLIED_CONDITIONS: HEK293 cells transfected with pBIND-GR, luciferase signal; read-out: GR agonist EC50
PROPERTY_NAME: pEC50
# pEC50: negative log10 of molar concentration; output just the value

stdin: Recall the reported pEC50 of C[C@]12C=CC(=O)C=C1[C@@H](F)C[C@H]1[C@@H]3C[C@H]4OC(C5CCC(NC(=O)C6COC(=O)C6)CC5)O[C@@]4(C(=O)SCF)[C@@]3(C)C[C@H](O)[C@@]12F (some centres unmarked) [Compound 6] on UniProtKB P04150 and write it down.
stdout: 8.06

stdin: Recall the reported pEC50 of C[C@]12C=CC(=O)C=C1CC[C@H]1[C@@H]3C[C@H]4OC(c5ccc(COC6COC(=O)C6)cc5)O[C@@]4(C(=O)CO)[C@@]3(C)C[C@H](O)[C@@]12Cl (some centres unmarked) [Compound 25] on UniProtKB P04150 and write it down.
stdout: 8.89

stdin: Recall the reported pEC50 of C[C@]12C=CC(=O)C=C1CC[C@@H]1[C@@H]2[C@@H](O)C[C@@]2(C)[C@H]1C[C@H]1OC(c3ccc(COC4COC(=O)C4)cc3)O[C@]12C(=O)CO (some centres unmarked) [Compound 31] on UniProtKB P04150 and write it down.
stdout: 8.09

stdin: Recall the reported pEC50 of C[C@]12C=CC(=O)C=C1CC[C@H]1[C@@H]3C[C@H]4OC(c5ccc(CS(=O)(=O)C6CCOC6=O)cc5)O[C@@]4(C(=O)CO)[C@@]3(C)C[C@H](O)[C@@]12F (some centres unmarked) [Compound 59] on UniProtKB P04150 and write it down.
stdout: 8.40

stdin: Recall the reported pEC50 of C[C@]12C=CC(=O)C=C1[C@@H](F)C[C@H]1[C@@H]3C[C@H]4OC(c5ccc(NCC6CCOC6=O)cc5)O[C@@]4(C(=O)CO)[C@@]3(C)C[C@H](O)[C@@]12F (some centres unmarked) [Compound 15] on UniProtKB P04150 and write it down.
stdout: 8.21
